# Test system: hDMFa myofibroblast cells
PARAMETER MEASURED: Compound Myofibroblast Cytotoxicity Activity

> print(dat)
                                   compound  recorded.measurement
1  Cc1ccc([C@@H]2O[C@H](CO)[C@@H](O)[C@H](O)[C@H]2O)cc1Cc1ccc(-c2ccc(F)cc2)s1.O [Cmpd 209, Canagliflozin (hemihydrate)]                 +++++
2                  N=C(N)NCCC[C@H](N)C(=O)O                    ++
3  C=C1/C(=C\C=C2/CCC[C@]3(C)[C@@H]([C@H](C)/C=C/[C@@H](O)C4CC4)CC[C@@H]23)C[C@@H](O)C[C@@H]1O                   +++
4  CCCCC1OC(=O)c2ccccc21 (stereo not shown) [Cmpd 54, 3-n-Butylphathlide]                    ++

Data credit: patent US20260102359A1
